Assay Target: T1, Human CD3eg linker (human)
T1 construct: Single chain: epsilon and gamma subunits of human CD3 joined by a 29-mer linker, Flag-tag at the C-terminus; also called recombinant human CD3
T1 chain: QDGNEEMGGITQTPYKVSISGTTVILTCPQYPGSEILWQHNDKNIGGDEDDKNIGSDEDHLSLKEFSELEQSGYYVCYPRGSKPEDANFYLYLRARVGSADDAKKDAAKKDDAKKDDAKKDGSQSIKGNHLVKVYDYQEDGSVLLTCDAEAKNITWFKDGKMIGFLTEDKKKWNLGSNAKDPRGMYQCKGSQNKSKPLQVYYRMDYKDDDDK
Assay Comment: Biacore SPR, vs template H183/L072
Parameter Measured: fold change of affinity

binder="H183/L072 VH K64M (antibody, name in Kabat numbering, V domains shown) VH: QVQLVESGGGLVQPGRSLRLSCAASGFTFSNAWMHWVRQAPGKGLEWVAQIKDKGNAYAAYYAPSVMGRFTISRDDSKNSIYLQMNSLKTEDTAVYYCHYVHYASASTVLPAFGVDAWGQGTTVTVSS VL: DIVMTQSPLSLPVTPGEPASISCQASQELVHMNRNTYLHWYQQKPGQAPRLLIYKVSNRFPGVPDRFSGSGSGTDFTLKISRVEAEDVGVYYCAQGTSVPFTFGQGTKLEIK" parameter_measured="fold change of affinity" result="1.1 fold"
binder="H183/L072 VH D52aR (antibody, name in Kabat numbering, V domains shown) VH: QVQLVESGGGLVQPGRSLRLSCAASGFTFSNAWMHWVRQAPGKGLEWVAQIKRKGNAYAAYYAPSVKGRFTISRDDSKNSIYLQMNSLKTEDTAVYYCHYVHYASASTVLPAFGVDAWGQGTTVTVSS VL: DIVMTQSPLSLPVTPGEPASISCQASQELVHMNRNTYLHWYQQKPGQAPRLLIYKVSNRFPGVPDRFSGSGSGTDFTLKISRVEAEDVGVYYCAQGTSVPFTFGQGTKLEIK" parameter_measured="fold change of affinity" result="0 fold"
binder="H183/L072 VH H35T (antibody, name in Kabat numbering, V domains shown) VH: QVQLVESGGGLVQPGRSLRLSCAASGFTFSNAWMTWVRQAPGKGLEWVAQIKDKGNAYAAYYAPSVKGRFTISRDDSKNSIYLQMNSLKTEDTAVYYCHYVHYASASTVLPAFGVDAWGQGTTVTVSS VL: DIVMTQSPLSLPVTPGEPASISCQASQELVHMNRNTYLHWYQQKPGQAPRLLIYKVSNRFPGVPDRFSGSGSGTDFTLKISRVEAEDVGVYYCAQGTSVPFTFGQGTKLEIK" parameter_measured="fold change of affinity" result="0 fold"

Data provenance is patent US20210388087A1.
